assay: chemical genetic growth profiling, strain panel (AID 1159580);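 note: tested at 20 µM; growth read once vehicle control cultures reached saturation at 30 °C; 1 = growth at the plate median or of vehicle wells; lower values mean less growth of the strain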; conditions: S. cerevisiae deletion strains, growth OD, locus YLR058C, strain SHM2, active compounds read low
In all, about 5,500 compounds went through this assay and about 2,000 (36%) were called active. Inconclusive results (about 18%) are left out. The list shows a part of the results.
compounds and their reported normalized growth

Compound	normalized growth
COc1ccc2c(c1)CCC(c1ccccc1)=C2c1ccc(OCCN2CCCC2)cc1	0.446
COc1cc(-c2coc3cc(OCc4ccccc4)c(OC)c(O)c3c2=O)cc(O)c1OC	0.863
CC[C@H](C)C(=O)O[C@H]1C[C@@H](C)C=C2C=C[C@H](C)[C@H](CC[C@@H]3C[C@@H](O)CC(=O)O3)[C@H]21	0.957
CC[C@H](C)C(=O)O[C@H]1CCC=C2C=C[C@H](C)C(CCC3C[C@@H](O)CC(=O)O3)[C@H]21 (stereo partly specified)	0.989
CC(C)NNC(=O)c1ccncc1	1.01
NC[C@@H]1CC[C@@H](N)[C@@H](O[C@H]2[C@H](O)[C@@H](O[C@H]3O[C@H](CO)[C@@H](O)[C@H](N)[C@H]3O)[C@H](N)C[C@@H]2N)O1	0.974
C=C1CCC2C(CC2(C)C)C(=O)CCC1O (stereo unspecified)	1.04
Cc1cc(-c2ccccc2)nnc1NCCN1CCOCC1	1.01
CCCCOC(=O)c1ccccc1C(=O)OCc1ccccc1	0.974
CC(C)C(=O)Nc1ccc([N+](=O)[O-])c(C(F)(F)F)c1	0.99
Cc1cccc(C)c1NC1=NCCCS1	0.996
Nc1ccc(N=Nc2ccccc2)c(N)n1	1
COc1ccc([C@H]2Oc3cc(OC)cc(OC)c3C[C@H]2O)cc1	1.01
COC(=O)[C@@H]1OC(=O)[C@H]2O[C@@]23[C@@]1(C)CCC1[C@@]2(C)CCC(=O)C(C)(C)C2C[C@@H](OC(C)=O)[C@]13C (stereo partly specified)	1.01
O=C1CC2OCC=C3CN4CC[C@]56c7ccccc7N1C5[C@H]2[C@H]3CC46 (stereo partly specified)	1.02
CC(C)[C@@H]1CC[C@@H](C)C[C@H]1O	1
NS(=O)(=O)c1cc2c(cc1Cl)NC(C(Cl)Cl)NS2(=O)=O (stereo unspecified)	1.02
OC(Cn1cncn1)(Cn1cncn1)c1ccc(F)cc1F	1
COC(=O)C[C@H]1C(C)(C)C(=O)[C@@H]2CC3=C(CC[C@]4(C)C3=CC(=O)O[C@H]4c3ccoc3)[C@@]1(C)C2=O	1.01
CO[C@@]1(NC(=O)CSCC#N)C(=O)N2C(C(=O)O)=C(CSc3nnnn3C)CSC21 (stereo partly specified)	1.01
NC(N)=NS(=O)(=O)c1ccc(N)cc1	1.02
O=S1OCC2C(CO1)C1(Cl)C(Cl)=C(Cl)C2(Cl)C1(Cl)Cl (stereo unspecified)	0.979
NC(CO)C(=O)NNCc1ccc(O)c(O)c1O (stereo unspecified)	1.01
CCCCOC(=O)c1ccccc1C(=O)OCCCC	0.968
COc1cc([C@@H]2c3cc4c(c(O)c3C[C@H]3COC(=O)[C@@H]32)OCO4)cc(OC)c1OC	0.982
C=C1C(=O)OC2CC1C(OC(C)=O)C/C(C)=C/CC/C(C)=C/CC[C@]2(C)O (stereo partly specified)	1.02
C=C1C(C)C2C(Cc3ccccc3)NC(=O)C23OC(=O)/C=C/C(=O)CCCC(C)C/C=C/C3C1O (stereo unspecified)	1.01
C=C1CCC2C(CC2(C)C)C(=C)CC/C1=N\O (stereo unspecified)	1.01
Cc1cc(NC(=O)C2=C(O)c3ccccc3S(=O)(=O)N2C)no1	0.984
CC1(C)OC(=O)C=CC2(C)C1CC(O)C1(C)C2CCC2(C)C(c3ccoc3)OC(=O)C3OC321 (stereo unspecified)	1.01
CN1C(C(=O)Nc2ccccn2)=C(O)c2ccccc2S1(=O)=O	0.982
